Reported hERG current change (%, negative = inhibition) at 10uM values follow for various compounds
# System: human ether-à-go-go-related gene (hERG) potassium channel (human, UniProt Q12809)
# Sequence (Q12809 whole entry, looked up): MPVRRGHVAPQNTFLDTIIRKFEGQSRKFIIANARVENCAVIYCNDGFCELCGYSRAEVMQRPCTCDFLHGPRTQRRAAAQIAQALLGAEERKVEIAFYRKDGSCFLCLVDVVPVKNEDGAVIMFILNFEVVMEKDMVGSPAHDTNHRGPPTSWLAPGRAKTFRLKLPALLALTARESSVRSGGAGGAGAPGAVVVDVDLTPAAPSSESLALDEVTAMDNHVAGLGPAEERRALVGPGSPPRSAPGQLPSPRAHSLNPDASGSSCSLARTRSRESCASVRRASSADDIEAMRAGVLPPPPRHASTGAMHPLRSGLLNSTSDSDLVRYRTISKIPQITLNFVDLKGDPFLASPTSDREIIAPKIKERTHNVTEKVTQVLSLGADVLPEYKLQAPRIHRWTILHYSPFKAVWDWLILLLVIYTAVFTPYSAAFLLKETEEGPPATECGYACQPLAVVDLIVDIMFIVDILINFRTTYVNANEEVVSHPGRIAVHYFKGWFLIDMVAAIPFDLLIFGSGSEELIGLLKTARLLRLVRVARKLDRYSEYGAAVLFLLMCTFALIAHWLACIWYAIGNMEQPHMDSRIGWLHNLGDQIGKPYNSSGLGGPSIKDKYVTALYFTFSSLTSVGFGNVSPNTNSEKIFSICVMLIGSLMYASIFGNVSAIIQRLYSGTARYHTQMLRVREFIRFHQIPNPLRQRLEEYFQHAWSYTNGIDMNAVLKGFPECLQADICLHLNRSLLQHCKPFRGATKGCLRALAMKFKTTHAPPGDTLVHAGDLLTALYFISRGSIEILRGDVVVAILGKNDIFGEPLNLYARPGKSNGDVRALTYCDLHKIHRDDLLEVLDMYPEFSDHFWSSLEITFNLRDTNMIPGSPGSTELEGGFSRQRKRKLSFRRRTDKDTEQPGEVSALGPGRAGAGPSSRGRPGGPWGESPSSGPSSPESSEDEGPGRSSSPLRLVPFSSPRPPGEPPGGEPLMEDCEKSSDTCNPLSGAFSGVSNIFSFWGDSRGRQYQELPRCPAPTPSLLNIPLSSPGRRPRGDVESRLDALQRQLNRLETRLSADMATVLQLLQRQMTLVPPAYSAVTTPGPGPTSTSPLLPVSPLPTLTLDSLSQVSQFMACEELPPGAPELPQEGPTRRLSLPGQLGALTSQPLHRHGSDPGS
# Measurement Description: primary screen, population patch clamp on CHO cells stably expressing hERG; higher = less effect of the substance
The campaign covered roughly 310,000 compounds. About 14,000 (4.5%) showed an effect of 50% or more. Effects have a minus sign here. What follows is part of a selection rich in strong results, with near analogues and random picks from the rest.
Give the value in % but do not write % after it.

Use these answered entries as a reference point.
[[record]]
compound = "Cc1ccc(Cn2c(NS(=O)(=O)c3ccccc3)nc3ccccc32)cc1"
system = "human ether-à-go-go-related gene (hERG) potassium channel (human, UniProt Q12809)"
units_label = "%"
measured_number = 21.3

[[record]]
compound = "CCN(CC)C(CNC(=O)CSc1nnnn1-c1cccc(F)c1)c1ccco1 (stereo not drawn)"
system = "human ether-à-go-go-related gene (hERG) potassium channel (human, UniProt Q12809)"
units_label = "%"
measured_number = -16.4

[[record]]
compound = "Cc1c(C)c2ccc(OCC(=O)NCCCn3ccnc3)c(C)c2oc1=O"
system = "human ether-à-go-go-related gene (hERG) potassium channel (human, UniProt Q12809)"
units_label = "%"
measured_number = -32.7

[[record]]
compound = "CSc1ccc(/C=N/NC(=O)CN2CCN(Cc3ccccc3Cl)CC2)cc1"
system = "human ether-à-go-go-related gene (hERG) potassium channel (human, UniProt Q12809)"
units_label = "%"
measured_number = -37.5


With those in mind, consider the next compound.
Q: Which measured hERG current change (%, negative = inhibition) at 10uM value corresponds to CCN(CC)CCn1c(C)nc2ccccc21.Cl ?
A: -9.07

###

# System: human ether-à-go-go-related gene (hERG) potassium channel (human);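 also: peak tail current of the secondary pulse compared with the same well before compound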
# Measurement Description: primary screen, population patch clamp on CHO cells stably expressing hERG; higher = less effect of the substance
The whole screen tested about 310,000 compounds, of which about 14,000 (4.5%) showed an effect of 50% or more. Effects have a minus sign here. For the sample, strong results were picked, then their nearest neighbours and some compounds at random.
Measurement Name: hERG current change (%, negative = inhibition) at 10uM (%)
Express it in %; write the number only.

Before answering, review these 5 worked examples.
[[record]]
compound_smiles = "COc1ccc(Br)cc1CN(C)C(=O)Cc1ccc(OC)c(S(=O)(=O)N2CCOCC2)c1"
measured_number = -41

[[record]]
compound_smiles = "Cc1cc(C(=O)N/N=C/c2ccc([N+](=O)[O-])o2)c(C)o1"
measured_number = -7.72

[[record]]
compound_smiles = "CC(C)(C)c1ccc(C(=O)Cn2cnnc2C#N)cc1"
measured_number = 3.7

[[record]]
compound_smiles = "CC(=O)N1CCN(Cc2nc3cc(NC(=O)c4ccc(F)cc4)ccc3n2C)CC1"
measured_number = -8.9

[[record]]
compound_smiles = "CC(C)(C)n1cnc2cc(NC(=O)c3ccc(Cl)cc3)ccc21"
measured_number = -59.1


Q: Fill in the recorded hERG current change (%, negative = inhibition) at 10uM for this compound, with human ether-à-go-go-related gene (hERG) potassium channel (human) as test system: Cn1c(CN2CCCCC2)nc2cc(NC(=O)c3ccc(F)cc3)ccc21
A: -54.2

Q: // lookup hERG current change (%, negative = inhibition) at 10uM | system=human ether-à-go-go-related gene (hERG) potassium channel (human) | key= COc1ccc(C(=O)Nc2ccc3c(c2)nc(CN2CCCC2)n3C)cc1;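 also: peak tail current of the secondary pulse compared with the same well before compound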
A: -44.4

Q: Request - read-out hERG current change (%, negative = inhibition) at 10uM | tested on human ether-à-go-go-related gene (hERG) potassium channel (human) | compound Cn1c(CN2CCCC2)nc2cc(NC(=O)c3ccc(Cl)cc3)ccc21;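 also: peak tail current of the secondary pulse compared with the same well before compound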
A: -82

Q: Find the measured hERG current change (%, negative = inhibition) at 10uM: item Cn1cnc2cc(NC(=O)c3ccc(Cl)cc3)ccc21 , target or system human ether-à-go-go-related gene (hERG) potassium channel (human).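 Also: peak tail current of the secondary pulse compared with the same well before compound.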
A: -18.9

Q: Can you look up hERG current change (%, negative = inhibition) at 10uM on human ether-à-go-go-related gene (hERG) potassium channel (human) for Cc1ccc(S(=O)(=O)N2CCOCC2)cc1C(=O)OCCOc1cccc(Cl)c1 ?
A: -9.45
